Here's what we have: IC50 numbers for MMP-10 (Homo sapiens).
A complete answer gives the number followed by the unit.

See these solved cases before continuing.
{"Compound": "O=C(O)[C@H]1[C@H](Cn2nnc3ccc(C(F)(F)F)cc3c2=O)CC[C@@H]1C(=O)c1ccc(OCc2ccccc2)cc1 (racemic)", "IC50": "16 nM"}
{"Compound": "O=C(O)[C@H]1[C@H](Cn2nnc3ccccc3c2=O)CC[C@@H]1C(=O)c1ccc(OCc2cccc(Cl)c2)cc1 (racemic)", "IC50": "310 nM"}
{"Compound": "Cc1ccc2nnn(C[C@@H]3CC[C@H](C(=O)c4ccc(OCc5cccc(OC(F)(F)F)c5)cc4)[C@H]3C(=O)O)c(=O)c2c1 (racemic)", "IC50": "100 nM"}
{"Compound": "O=C(O)[C@H]1[C@H](Cn2nnc3ccc(C(F)(F)F)cc3c2=O)CC[C@@H]1C(=O)c1ccc(OCCCC2CCCCC2)cc1 (racemic)", "IC50": "250 nM"}
{"Compound": "O=C(O)[C@H]1[C@H](Cn2nnc3ccc(C(F)(F)F)cc3c2=O)CC[C@@H]1C(=O)c1ccc(OCCCc2ccccc2)cc1 (racemic)", "IC50": "170 nM"}

Name the recorded IC50 for Cc1cccc(COc2ccc(C(=O)[C@H]3CC[C@@H](Cn4nnc5ccc(C(F)(F)F)cc5c4=O)[C@@H]3C(=O)O)cc2)c1 (racemic) . 26 nM
